experimental_target: T1, human GIP receptor (human, UniProt P48546 22-466)
T1 sequence (looked up): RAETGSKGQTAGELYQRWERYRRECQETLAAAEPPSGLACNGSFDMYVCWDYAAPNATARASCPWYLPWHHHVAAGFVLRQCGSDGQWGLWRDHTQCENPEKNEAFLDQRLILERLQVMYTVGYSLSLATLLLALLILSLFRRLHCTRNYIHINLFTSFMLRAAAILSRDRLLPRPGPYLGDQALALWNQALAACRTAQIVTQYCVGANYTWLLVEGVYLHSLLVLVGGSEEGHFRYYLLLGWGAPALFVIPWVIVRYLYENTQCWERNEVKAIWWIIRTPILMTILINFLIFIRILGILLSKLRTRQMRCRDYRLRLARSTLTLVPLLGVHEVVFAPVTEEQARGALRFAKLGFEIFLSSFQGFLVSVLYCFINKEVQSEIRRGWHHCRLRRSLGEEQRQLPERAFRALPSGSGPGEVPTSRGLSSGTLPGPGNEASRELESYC
method_description: cell-based or functional assay
Bridges are numbered along the chain shown (N, C = ends). Where no end group is shown, it is not given here. [ ]: non-standard residue; d: D form. Aib = CC(C)(N)C(=O)O
property_measured: In vitro activity relative to native peptide (%) vs. GIP
Note: unit % is implicit; provide only the numeric part.

binder	unit_of_measurement	quantitative_result
Y[Aib]QGTFTSDYSKCLDERAAKEFVQWLLDHHPSSGQPPPS (bridge 16-20) [triple agonist of SEQ ID NO: 69]	%	62.8

Return the recorded In vitro activity relative to native peptide (%) vs. GIP value; entry: H[Aib]QGTFTSDYSKYLDECRQKEFVQWLLNGGPSSGAPPPSG (bridge 16-20) [triple agonist of SEQ ID NO: 37] 2.2

Return the recorded In vitro activity relative to native peptide (%) vs. GIP value; entry: Y[Aib]QGTFTSDYSKALDEKAAKDFVNWLLDQHPSSGQPPPSC (bridge 16-20) [triple agonist of SEQ ID NO: 102] 58

Return the recorded In vitro activity relative to native peptide (%) vs. GIP value; entry: Y[Aib]QGTFTSDYSKCLDEKRAKDFVQWLLDHHPSSGQPPPS (bridge 16-20) [triple agonist of SEQ ID NO: 70] 64.4

Return the recorded In vitro activity relative to native peptide (%) vs. GIP value; entry: H[Aib]QGTFTSDYSKYLDEKRAKEFVQWLLDHHPSSGQPPPSC (bridge 16-20) [triple agonist of SEQ ID NO: 50] 2.7

Return the recorded In vitro activity relative to native peptide (%) vs. GIP value; entry: H[Aib]QGTFTSDYSKYLDEKRQKEFVNWLLAQKC (bridge 16-20) [triple agonist of SEQ ID NO: 34] 0.6

Return the recorded In vitro activity relative to native peptide (%) vs. GIP value; entry: H[Aib]EGTFTSDYSIAMDEIHQKDFVNWLLAQC (bridge 16-20) [triple agonist of SEQ ID NO: 53] 1.3

Return the recorded In vitro activity relative to native peptide (%) vs. GIP value; entry: Y[Aib]QGTFTSDYSKYLDECRAKEFVQWLLDHHPSSGQPPPS (bridge 16-20) [triple agonist of SEQ ID NO: 21] 22.7
